protocol: Solubility
condition.details: water
metric.name: solubility (mg/mL)
Write down the numeric answer in mg/mL and omit the unit.

Which solubility is listed for CC1OC=C(C(=O)O)C2CC3c4[nH]c5ccccc5c4CCN3CC12 (stereo not shown) [tétrahydroalstonate de sodium, Tétrahydroalstonate de sodium] ?
90

---

protocol: Solubility
condition.details: 95% ethanol, organic solvent or mixture
metric.name: solubility (mg/mL)
Write down the numeric answer in mg/mL and omit the unit.

Which solubility is listed for CC1OC=C(C(=O)O)C2CC3c4[nH]c5ccccc5c4CCN3CC12 (stereo not shown) [tétrahydroalstonate de sodium, Tétrahydroalstonate de sodium] ?
70

---

protocol: Solubility
condition.details: chloroform, organic solvent or mixture
metric.name: solubility (mg/mL)
Write down the numeric answer in mg/mL and omit the unit.

Which solubility is listed for CC1OC=C(C(=O)O)C2CC3c4[nH]c5ccccc5c4CCN3CC12 (stereo not shown) [tétrahydroalstonate de sodium, Tétrahydroalstonate de sodium] ?
35
